System: HL-60
method notes: NCI tumour cell line growth inhibition, 48 h
Calls of active or inactive are those of the source. Cut-off read from the data, not from the text of the source: active = GI50 up to about 1.1 µM and inactive = higher.
quantity kind: GI50

**Q:** Please give the measured GI50 for this molecule: C=C(Cl)C(Cl)(CBr)CCC(Br)C(C)(C)Br (centres undefined)
**A:** 2.19 µM (inactive)

**Q:** # repeat for "CC(=O)CC(=O)CCC(=O)Nc1cccc(C(F)(F)F)c1"
**A:** > 100 µM (inactive)

**Q:** # repeat for COC(=O)C1=C(C)N(NC(N)=O)C2(N)N(NC(N)=O)C(C)=C(C(=O)OC)C12C(=O)OC (centres undefined)
**A:** > 100 µM (inactive)
